- Test system: human hepatocyte growth factor receptor mRNA
- experimental-details: Inhibition of human hepatocyte growth factor receptor mRNA levels in T-24 cells, quantitative real-time PCR
- stated-conditions: averages from three experiments
Strand notation (5' to 3'): a small letter for the sugar, then the base; units joined by * are phosphorothioate-linked, units joined directly phosphodiester-linked; [ ] holds rarer units or linkages, { } end groups; capitals alone tell only the bases. e = 2'-O-(2-methoxyethyl) (MOE); [5mC] = 5-methylcytosine; d = 2'-deoxy (DNA)
Where % INHIB (inhibition of human hepatocyte growth factor receptor mRNA levels) equals or exceeds 80%, the correct label is class 1; where it does not, the label is class 0.

Look over these answered cases.
| substance | assay-system | assigned-class |
| --- | --- | --- |
| 209522 (antisense eA*eG*eA*eG*eG*dT*dT*dT*dA*dT*d[5mC]*dT*dT*dT*d[5mC]*eG*eG*eT*eG*e[5mC]) [compound 209522] | human hepatocyte growth factor receptor mRNA | class 0 |
| 209548 (antisense eT*e[5mC]*eA*eA*eG*dA*dA*dG*d[5mC]*d[5mC]*d[5mC]*dT*d[5mC]*dA*dA*eT*eA*eT*eT*eT) [compound 209548] | human hepatocyte growth factor receptor mRNA | class 0 |
| 209533 (antisense e[5mC]*eA*e[5mC]*e[5mC]*eA*d[5mC]*dT*dG*dG*d[5mC]*dA*dA*dA*dG*d[5mC]*eA*eA*eA*eA*eT) [compound 209533] | human hepatocyte growth factor receptor mRNA | class 0 |
| 155123 (antisense eG*e[5mC]*eA*eA*eA*dG*d[5mC]*dT*dG*dT*dG*dG*dT*dA*dA*eA*e[5mC]*eT*e[5mC]*eT) [compound 155123] | human hepatocyte growth factor receptor mRNA | class 1 |
| 155113 (antisense e[5mC]*eT*eA*eA*eT*dG*dA*dG*dT*dT*dG*dA*dT*d[5mC]*dA*eT*e[5mC]*eA*eT*eA) [compound 155113] | human hepatocyte growth factor receptor mRNA | class 1 |
| 155105 (antisense eA*eT*e[5mC]*eA*eA*dA*dG*dT*dA*dT*dT*dT*dG*dG*dA*eA*eA*eG*eG*eA) [compound 155105] | human hepatocyte growth factor receptor mRNA | class 0 |
| 209531 (antisense eT*eA*eA*eG*eT*d[5mC]*dA*dA*dT*dT*dT*dT*d[5mC]*dA*dA*eT*eT*eT*eA*eA) [compound 209531] | human hepatocyte growth factor receptor mRNA | class 0 |
| 155129 (antisense eG*eA*eT*eT*eG*dG*dG*dT*d[5mC]*d[5mC]*dG*dT*dA*dA*dA*eA*eA*eT*eG*e[5mC]) [compound 155129] | human hepatocyte growth factor receptor mRNA | class 0 |
| 209529 (antisense e[5mC]*e[5mC]*e[5mC]*eA*eG*d[5mC]*d[5mC]*dA*d[5mC]*dA*dT*dA*dT*dG*dG*eT*e[5mC]*eA*eG*e[5mC]) [compound 209529] | human hepatocyte growth factor receptor mRNA | class 1 |
| 155119 (antisense eA*eA*eG*eT*eA*dT*dA*dT*dT*dA*dA*dA*d[5mC]*dA*d[5mC]*eT*eT*e[5mC]*e[5mC]*eT) [compound 155119] | human hepatocyte growth factor receptor mRNA | class 1 |

Please tell me: is the substance 209541 (antisense eA*e[5mC]*e[5mC]*eA*eA*dG*dT*dA*d[5mC]*dT*dG*dT*dA*dA*dG*eA*eG*eA*eG*eG) [compound 209541] at or over 80% in terms of % INHIB (inhibition of human hepatocyte growth factor receptor mRNA levels)? class 0

Please tell me: is the substance 155120 (antisense eG*eT*eG*eT*e[5mC]*d[5mC]*dT*dA*dT*dT*dA*dA*dA*dG*d[5mC]*eA*eG*eT*eG*e[5mC]) [compound 155120] at or over 80% in terms of % INHIB (inhibition of human hepatocyte growth factor receptor mRNA levels)? class 1

Please tell me: is the substance 155097 (antisense e[5mC]*e[5mC]*eT*e[5mC]*eG*dG*dT*d[5mC]*dA*dG*dA*dA*dA*dT*dT*eG*eG*eG*eA*eA) [compound 155097] at or over 80% in terms of % INHIB (inhibition of human hepatocyte growth factor receptor mRNA levels)? class 0

Please tell me: is the substance 155127 (antisense eG*eA*eT*e[5mC]*eT*dG*dG*dT*dT*dG*dA*dA*d[5mC]*dT*dA*eT*eT*eA*e[5mC]*eT) [compound 155127] at or over 80% in terms of % INHIB (inhibition of human hepatocyte growth factor receptor mRNA levels)? class 1
